- Study target: Neu5Ac(a2-3)Gal(b1-3)GalNAc6S
- Assay text: glycan array binding signal (z-score within array); higher = stronger binding
- Condition label: glycan notation: IUPAC condensed, linker removed
Only a selection was taken, and the strongest signals are over-represented in it overall.
Measured quantity: glycan array binding signal (z-score)
Give the figure only, with no unit attached.

As a guide, the following entries are already answered.
Binder	glycan array binding signal (z-score)
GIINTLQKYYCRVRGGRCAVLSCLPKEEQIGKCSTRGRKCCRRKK [Beta-Defensin 3 (Homo sapiens), P81534]	1.18
Mermaid1 (Stilbonema majum) (protein) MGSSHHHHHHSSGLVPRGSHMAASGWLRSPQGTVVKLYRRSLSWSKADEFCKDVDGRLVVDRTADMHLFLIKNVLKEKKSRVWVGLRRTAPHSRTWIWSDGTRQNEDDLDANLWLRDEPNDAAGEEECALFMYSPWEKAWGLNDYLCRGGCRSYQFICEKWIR	0.152

Now for the binder whose glycan array binding signal (z-score) we want.
Task: Consider the binder shown here: Mermaid3 (Stilbonema majum) (protein) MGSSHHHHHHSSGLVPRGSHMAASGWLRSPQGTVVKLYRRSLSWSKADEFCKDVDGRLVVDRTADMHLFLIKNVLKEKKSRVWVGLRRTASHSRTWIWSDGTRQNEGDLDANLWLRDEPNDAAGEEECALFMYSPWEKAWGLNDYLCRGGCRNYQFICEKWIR What is its recorded glycan array binding signal (z-score)?
Output: -0.112
